Sourced from patent US20230257479A1

Biological target: T1, human 5T4ECDHis (mature protein of SEQ ID NO: 99) (human, UniProt Q13641 32-355)
T1 construct: ECD of human 5T4 (aa 1-355 of Uniprot Q13641) with C-terminal His tag; residues 1-31 are the signal peptide; also called ECD of human 5T4 with a C-terminal His tag
T1 sequence: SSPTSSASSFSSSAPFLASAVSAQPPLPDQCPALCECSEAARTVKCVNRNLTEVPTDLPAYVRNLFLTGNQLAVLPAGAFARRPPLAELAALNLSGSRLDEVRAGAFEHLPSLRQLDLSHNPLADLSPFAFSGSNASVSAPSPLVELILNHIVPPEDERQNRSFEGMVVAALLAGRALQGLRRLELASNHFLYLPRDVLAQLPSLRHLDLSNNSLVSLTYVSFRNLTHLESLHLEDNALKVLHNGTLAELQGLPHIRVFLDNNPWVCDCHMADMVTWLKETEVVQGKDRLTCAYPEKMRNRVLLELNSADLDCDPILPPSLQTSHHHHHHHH
Assay: BLI cross-block; competitor (immobilised): IgG1-5T4-059-FEAR
experimental.endpoint: corrected association response (nm)
Give just the numeric value; nm need not be written.

GET /values?readout=corrected association response&item= IgG1-5T4-076-FEAR (antibody, V domains shown, Monospecific, bivalent human IgG1 kappa with L234F, L235E, D265A, K409R (FEAR)) VH: QVQLVQSGAEVKKPGASVKVSCKASGYTFTSYGISWVRQAPGQGLEWMGWISAYNGNTNYAQKLQGRVTMTTDTSTRTAYMELRSLRSDDTAVYYCARDPGYFDWLYGDYWGQGTLVTVSS VL: AIQLTQSPSSLSASVGDRVTITCRASQGISSALAWYQQKPGKAPKLLIYDASSLESGVPSRFSGSGSGTDFTLTISSLQPEDFATYYCQQFNSYPRTFGQGTKVEIK
0
